# Test system: HT29 colon
# Measurement Description: NCI-60 one-dose screen, 48 h
# Test Conditions: 10 µM unless noted
This is part of a sample that, as a whole, favours compounds with a hit. Of some 83,000 tested, about 20% had one in any assay. Activity calls are given as the source filed them. How the source made its calls: active means growth percent below 10; inactive means the rest.
Permitted responses: 1 = active, -1 = inactive

Illustrative cases are given below, each with its answer.
>  <Mol Smiles>
O=C(Nc1ccc2ncsc2c1)c1csc(Nc2ccc3[nH]ncc3c2)n1

>  <Test System>
HT29 colon

>  <Assigned Class>
-1

$$$$
>  <Mol Smiles>
c1ccc(-c2cc(-c3cc(-c4ccccc4)on3)no2)cc1

>  <Test System>
HT29 colon

>  <Assigned Class>
-1

$$$$
>  <Mol Smiles>
N=c1ccccn1CCO

>  <Test System>
HT29 colon

>  <Assigned Class>
-1

$$$$

Test call, this compound: `Nc1nc2c(s1)CCc1cn(S(=O)(=O)c3ccccc3)cc1-2` -1

Test call, this compound: `COc1cc2cc(NCc3ccncc3)nc(C)c2cc1OC` -1

Test call, this compound: `Nc1n[nH]c2cccc(C#Cc3cccc(NC(=O)c4ccc(N5CCOCC5)c(C(F)(F)F)c4)c3)c12` 1

Test call, this compound: `O=C(NNC(=S)Nc1ccccc1)c1ccncc1` -1

Test call, this compound: `CCCc1cc(C(N)=S)ccn1` -1

Test call, this compound: `COc1ccccc1/C=C1\COc2ccc(O)cc2C1=O` -1

Test call, this compound: `CN1CCN(CCNC(=O)c2cccc(CN3c4cccc5c4C(=Cc4cccnc43)N(C)C5=O)c2)CC1` -1

Test call, this compound: `COc1ccc(/C=C/C(=O)c2cc3c(N)c(C(=O)Nc4ccccc4Cl)sc3nc2C)cc1` -1
